Provenance of the data: PubChem BioAssay AID1069

test-description: LNCaP granularity increase inducers, single-point recheck – cell-based, side scatter shift, flow cytometry, confirmation (AID 1069);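 note: LNCaP human prostate cancer cells in low-serum medium with charcoal-stripped FBS; percent of cells with raised granularity gated so DMSO controls show 10%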
condition-details: LNCaP differentiation, 4 d, at 100 µM, active compounds read high
observed-property: side scatter shift (%)

1) CCn1c(=O)cc(SCC(=O)N2CCN(C3CCCCC3)CC2)c2ccccc21 ... 16.7
2) CCn1c(=O)cc(SCC(=O)NCCCN2CCN(c3ccccc3F)CC2)c2ccccc21 ... 0
3) CCCOc1ccc2nc(NC(=O)OC)[nH]c2c1 ... 8.3
4) Cc1ccccc1-c1nc(CN2CCC(C(=O)NCc3ccco3)CC2)c(C)o1 ... 41.1
5) CCN1CCN(CCNC(=O)C2CCCN(Cc3nc(-c4cccc(Cl)c4)oc3C)C2)CC1 (configuration not stated) ... 14.3
6) CCN1CCCC1CNC(=O)c1cc2c(-c3cccc(OC)c3)nn(C)c2s1 (configuration not stated) ... 40
7) COC(=O)C1=C(C)N=c2s/c(=C/c3cccs3)c(=O)n2C1c1cccs1 (configuration not stated) ... 32.8
8) Cn1c(=O)cc(OCC(=O)NCCCN2CCN(c3ccccc3F)CC2)c2ccccc21 ... 66.5
9) Cc1ccccc1-c1nc(CN2CCC(C(=O)NCCCN3CC(C)CC(C)C3)CC2)c(C)o1 (configuration not stated) ... 54.5
10) CCn1c(=O)cc(OCC(=O)NCCCN2CCN(c3cccc(Cl)c3)CC2)c2ccccc21 ... 40
11) COCCCN(C(=O)Nc1ccccc1)C(C)c1ccncc1 (configuration not stated) ... 9.2
12) N=c1n(CCN2CCCCC2)c2ccccc2n1CC(O)COc1ccccc1 (configuration not stated) ... 20
13) COc1ccc(N2CCN(CCCNC(=O)CCCn3c(=O)[nH]c4ccsc4c3=O)CC2)cc1 ... 7.7
14) CCOc1ccccc1NC(=O)CCC(=O)O ... 6.7
15) O=S(=O)(Nc1cccc2ncccc12)c1cccs1 ... 14.3
16) COc1ccc(CCNC(=O)C2CCN(Cc3nc(-c4ccccc4C)oc3C)CC2)cc1OC ... 0
17) Cc1ccc(Cl)cc1N1CCN(C(=O)c2cc3c(=O)n(C)c4ccccc4c3n2C)CC1 ... 12.9
18) CC(C)CCNC(=O)C1CCN(c2nc3ccccc3o2)CC1 ... 28.8
19) O=C(Nc1c(C(=O)N2CCOCC2)cnn1-c1ccccc1)c1ccco1 ... 7.5
20) CCC(C(=O)Nc1ccccc1OC)n1c(C(=O)OC)cc2ccsc21 (configuration not stated) ... 12.2
21) COc1ccc2c(c1OC)C(=O)N(C(C)C(=O)O)C2=O (configuration not stated) ... 17.9
22) CCOC(=O)N1CCC(NC(=O)c2cc3c(-c4ccccc4F)nn(C)c3s2)CC1 ... 3.3
23) c1ccc(N2CCN(c3nnc(Cc4cccnc4)c4ccccc34)CC2)nc1 ... 17.5
24) Cn1c(C(=O)NCCCN2CCN(c3cccc(Cl)c3)CC2)cc2c(=O)n(C)c3ccccc3c21 ... 69.6
25) Cc1ccnc(NC(=O)CCC(=O)N(CC(=O)NC2CCCCC2)c2cccc(C)c2C)c1 ... 11.1
26) Cc1ccccc1-c1nc(CN2CCC(C(=O)NCC3CCCO3)CC2)c(C)o1 (configuration not stated) ... 22.5
27) Cc1oc(-c2cccc(Cl)c2)nc1CN1CCCC(C(=O)NC(C)c2ccc3c(c2)OCCO3)C1 (configuration not stated) ... 0
28) O=C(c1ccc2c(c1)OCCO2)N1CCCCC1 ... 7.7
29) Cn1c(=O)cc(SCC(=O)NCCCN2CCN(c3ccc(F)cc3)CC2)c2ccccc21 ... 46.7
30) COC(=O)c1ccccc1S(=O)(=O)N(Cc1cc2cc3c(cc2[nH]c1=O)OCO3)C1CCCCC1 ... 50
31) Cn1nc(-c2ccc(Cl)cc2)c2cc(C(=O)NCCN3CCOCC3)sc21 ... 30
32) CCOC(=O)c1ccc(-c2n[nH]c(=O)c3ccccc23)cc1 ... 10.7
33) COc1ccc(-c2oc3ncn(CCN4CCOCC4)c(=N)c3c2-c2ccc(OC)cc2)cc1 ... 42.3
34) COc1ccc2cc3cc(C(=O)Nc4ccccc4N4CCN(C)CC4)oc3nc2c1 ... 68.3
35) O=C(CSc1nc2sc3c(c2c(=O)n1-c1ccccc1)CCCC3)NCc1ccco1 ... 24
36) O=C(NCCCN1CCN(c2cccc(Cl)c2)CC1)C1CCC(=O)N1Cc1ccccc1Cl (configuration not stated) ... 33.3
37) CCOC(=O)c1c(NCc2ccc3c(c2)OCO3)c2ccccc2[nH]c1=O ... 12.8
38) CCOC(=O)c1sc2ncnc(N3CCN(c4ccc(OC)cc4)CC3)c2c1C ... 25
39) Cc1cc(=O)oc(C)c1C(=O)NCCCN1CCN(c2ccccc2F)CC1 ... 32.8
40) O=C1CCCc2c1cc(C(=O)NC1CCSC1=O)c(=O)n2-c1ccccc1 (configuration not stated) ... 5.9
41) Cc1oc(-c2ccc(Cl)cc2)nc1CN1CCCC(C(=O)NCCCN2CCCC2=O)C1 (configuration not stated) ... 14
42) CCc1ccc(NC(=O)NCCN2CCc3ccccc3C2)cc1 ... 0
